This section lists IC50 readings for UniProtKB Q02763.
Sequence (Q02763 23-1124): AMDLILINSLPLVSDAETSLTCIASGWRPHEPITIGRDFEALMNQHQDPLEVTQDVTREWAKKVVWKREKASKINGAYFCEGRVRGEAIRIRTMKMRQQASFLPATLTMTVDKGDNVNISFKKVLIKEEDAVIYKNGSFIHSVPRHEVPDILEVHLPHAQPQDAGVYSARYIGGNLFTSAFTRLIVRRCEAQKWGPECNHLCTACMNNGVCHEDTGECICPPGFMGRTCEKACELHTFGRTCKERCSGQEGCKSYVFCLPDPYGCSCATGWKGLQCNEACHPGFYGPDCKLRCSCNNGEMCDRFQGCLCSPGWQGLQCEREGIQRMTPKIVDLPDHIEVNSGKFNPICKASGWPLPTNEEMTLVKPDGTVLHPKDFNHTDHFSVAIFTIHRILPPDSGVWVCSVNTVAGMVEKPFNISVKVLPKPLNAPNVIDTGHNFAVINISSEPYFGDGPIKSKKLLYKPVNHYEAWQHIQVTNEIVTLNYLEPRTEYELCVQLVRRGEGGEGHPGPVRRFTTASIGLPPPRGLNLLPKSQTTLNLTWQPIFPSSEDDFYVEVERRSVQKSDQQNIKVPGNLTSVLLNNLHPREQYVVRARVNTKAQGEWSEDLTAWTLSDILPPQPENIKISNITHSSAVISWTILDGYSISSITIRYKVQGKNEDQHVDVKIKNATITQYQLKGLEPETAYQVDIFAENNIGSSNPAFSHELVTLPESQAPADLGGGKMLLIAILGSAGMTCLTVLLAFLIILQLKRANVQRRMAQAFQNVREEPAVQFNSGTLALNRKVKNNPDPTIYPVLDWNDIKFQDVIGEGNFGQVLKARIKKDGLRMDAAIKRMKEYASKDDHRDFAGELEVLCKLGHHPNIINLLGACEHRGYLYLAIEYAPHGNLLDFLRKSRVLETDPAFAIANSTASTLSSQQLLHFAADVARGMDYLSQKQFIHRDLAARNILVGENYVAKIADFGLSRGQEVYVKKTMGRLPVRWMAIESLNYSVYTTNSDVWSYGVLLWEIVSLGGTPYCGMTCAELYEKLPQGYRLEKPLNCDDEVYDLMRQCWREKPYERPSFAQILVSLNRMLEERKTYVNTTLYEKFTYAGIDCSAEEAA

A selection of reference data follows.
structure_smiles_string: COc1ccc(COc2nsnc2N2CCN(C(=O)Nc3cc(C(F)(F)F)cc(C(F)(F)F)c3)CC2)cc1
IC50: ≥ 10000 nM
--
structure_smiles_string: NC(=O)c1nccc(COc2nsnc2N2CCN(C(=O)Nc3cc(C(F)(F)F)cc(C(F)(F)F)c3)CC2)n1
IC50: 50 to 1000 nM
--
structure_smiles_string: Nc1nccc(COc2cccnc2N2CCN(C(=O)Nc3cccc(C(F)(F)F)c3F)CC2)n1
IC50: 50 to 1000 nM

Attention now turns to another entry.
Give reported IC50 for CC(C)c1cccc(NC(=O)N2CCN(c3nsnc3OCc3ccnc(N)n3)CC2)c1 (UniProtKB Q02763) < 50 nM
